From: ChEMBL document CHEMBL1201862

system: MCF7; experiment: NCI tumour cell line growth inhibition, 48 h
Calls of active or inactive are those of the source. No stated cut-off is given here; in the data, active = GI50 up to about 1.1 µM and inactive = higher.
metric: GI50

Nc1ccc(COC(O)CN2CCCCC2)cc1[N+](=O)[O-] (stereo not given) ... > 100 µM (inactive)
CC(C)(C)OC(=O)NCCC1CN(C(=O)c2ccccc2)c2ccccc21 (stereo not given) ... 28.2 µM (inactive)
[O-][N+](CCO)(CCO)c1ncnc2[nH]cnc12 ... 76.6 µM (inactive)
CCOC(=O)C(O)(NC(=O)c1ccc(F)cc1)C(F)(F)F (stereo not given) ... > 100 µM (inactive)
CC(C)(C)OC(=O)N1C(=O)OC[C@@H]2C=C[C@@H]21 ... > 100 µM (inactive)
Cc1ccc(NC(=O)CSc2nc(C)nc3c2sc(=S)n3-c2ccccc2)cc1 ... > 10 µM (inactive)
CC1(C)OC(=C(C#N)C#N)C(C#N)=C1/C=C/c1ccncc1 ... 2.04 µM (inactive)
Cc1cccc(N2C(=O)C3ON(C(C(N)=O)c4ccccc4)C(c4c5ccccc5c(Cl)c5ccccc45)C3C2=O)c1C (stereo not given) ... 7.64 µM (inactive)
CC12OC3(C(O)C1O)C(C(=O)O[C@H]3CO[Si](C)(C)C(C)(C)C)C2S(=O)(=O)c1ccccc1 (stereo not given in full) ... 36.1 µM (inactive)
CC(=O)CC(=O)N1CCSC1=S ... > 10 µM (inactive)
